system name: pooled human IgG (human IgG1,2,3 and 4)
observation type: Enzyme Activity Endpoint Assay: IgG (ng/µL)
Give bare numbers, in ng/µL.

Return reported Enzyme Activity Endpoint Assay: IgG. Input protein: PRT-85 (protein) MANQEIRYSEVTPKTITSVWTKGVTPPADFTQGEDVFHAPYKPNQGWYDINKTFNGKDNLLCGAATAGNMLHWWFDQNKEQIEAYLKKHPEKQKIMFGDQELLDVRKAINTKDDQTDSKLFNYFKDKAFPNLSARRLGVMPDHVLDMFINGYRLNVTKTQTTDVNRTYQTKDKRGGFFDAVFTRGDQSKLLTNRHDFKEKNLKEISDLIKKELTEGKALGLSHTYANVRINHVINLWGADFDSEGNLKAIYVTDSDSNASIGMKKYYVGVNSAGKVAISAKEIKGENIGAQVLGLYTLSTGQDIWNQTN
109
